Experiment: electronic properties, UV/Vis spectrophotometry of methanolic solutions
Type: physicochemical
Settings: methanolic solution c = 8.0 × 10^−5 M, charge-transfer maximum λ2 (Ch-T) = 236–238 nm
Here, each record is paired with measured log ε2 (Ch-T) data.
Would you mind answering with just the numeric figure?

Some compounds with recorded log ε2 (Ch-T):
| compound | log ε2 (Ch-T) |
| --- | --- |
| CCCCOc1cccc(NC(=O)OC(CN(CCC)CCC)CN2CCCCCC2)c1 (centres unmarked) | 4.09 |
| CCCCCCOc1cccc(NC(=O)OC(CN(CCC)CCC)CN2CCCCCC2)c1.Cl.Cl (centres unmarked) | 4.01 |
| CCCCCCCOc1ccccc1NC(=O)OC(CN(CCC)CCC)CN1CCCC1.Cl.Cl (centres unmarked) | 4.08 |
| CCCCOc1ccccc1NC(=O)OC(CN(CCC)CCC)CN1CCCC1 (centres unmarked) | 4.19 |

# input for lookup
q: For the compound CCCCOc1cccc(NC(=O)OC(CN(CCC)CCC)CN2CCCC2)c1 (centres unmarked) , give its reported log ε2 (Ch-T).
a: 4.24
